The following compounds are shown together with reported cytotoxicity at 70.5 h values.
test: Human HepG2 cell viability assay in 384 well format; assay type: toxicity, cell-based; design: dose 125 nL, time 70.5 hour; concentration not given beside the values; conditions: HepG2 cells, read-out: Inhibition
Return type: number; implicit unit %.

// solved cases for cytotoxicity at 70.5 h follow
>  <compound>
CN1CCOC(CNCCCOc2ccc(C#N)cc2)C1 (centres undefined)

>  <reading_unit>
%

>  <cytotoxicity at 70.5 h>
-5.34

$$$$
>  <compound>
O=S1(=O)COCCN1Cc1ccc(Cl)c(Cl)c1

>  <reading_unit>
%

>  <cytotoxicity at 70.5 h>
-6.71

$$$$
>  <compound>
O=C(c1cc(-n2cnnn2)ccc1Cl)N1CCC2(CC1)OCCO2

>  <reading_unit>
%

>  <cytotoxicity at 70.5 h>
-7.22

$$$$
>  <compound>
CC(C)c1nc(CN(C)C(=O)C2CC(=O)N(Cc3ccncc3)C2)cs1 (centres undefined)

>  <reading_unit>
%

>  <cytotoxicity at 70.5 h>
5.05

$$$$
>  <compound>
CNC(=O)N1CC[C@@H]2CN(Cc3cccc(Cl)c3)S(=O)(=O)[C@@H]2CC1

>  <reading_unit>
%

>  <cytotoxicity at 70.5 h>
-4.42

$$$$
>  <compound>
Cc1ccc(NC(=O)CCc2cnn(C)c2)cc1F

>  <reading_unit>
%

>  <cytotoxicity at 70.5 h>
-8.37

$$$$

Specify reported cytotoxicity at 70.5 h for the compound shown: Clc1ccc(CN2CCCCC2Cn2cncn2)c2ncccc12 (centres undefined)
-0.976

Specify reported cytotoxicity at 70.5 h for the compound shown: "CC[C@H]1CN2CC[C@H]1C[C@@H]2CNCc1ccc(OC(F)(F)F)cc1"
-7.22

Specify reported cytotoxicity at 70.5 h for the compound shown: "O=C(NC1CCCC1)c1nc2c(o1)CN(CCO)C2"
-0.956

Every entry's value here was drawn from ChEMBL document CHEMBL3507680.
